Assignment: determine reported Emax for the given compounds.
Tested system: rat δ (C6-DOR) opioid receptor (Rattus norvegicus)
Construct: expressed in transfected cells
Sequence (P33533 whole entry): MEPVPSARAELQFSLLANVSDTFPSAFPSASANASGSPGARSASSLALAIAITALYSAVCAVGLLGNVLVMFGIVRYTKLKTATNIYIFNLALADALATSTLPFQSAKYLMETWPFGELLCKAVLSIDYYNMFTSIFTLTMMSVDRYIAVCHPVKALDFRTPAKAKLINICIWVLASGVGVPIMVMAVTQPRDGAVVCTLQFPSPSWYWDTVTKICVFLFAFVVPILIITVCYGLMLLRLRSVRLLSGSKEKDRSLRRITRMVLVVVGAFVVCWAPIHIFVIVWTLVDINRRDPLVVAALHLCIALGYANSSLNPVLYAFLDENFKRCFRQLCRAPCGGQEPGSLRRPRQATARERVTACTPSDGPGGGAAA
Protocol text: Stimulation of [35S]GTPγS binding, DOR
Type: biochemical
Settings: [35S]GTPγS maximal stimulation compared with 10 μM standard DPDPE

Reported Emax (rat δ (C6-DOR) opioid receptor (Rattus norvegicus)) for entry Cc1ccc(Cc2ccc3c(c2)[C@@H](NC(=O)[C@@H](N)Cc2c(C)cc(O)cc2C)CCN3)cc1 [Compound 1008] is 3%

I looked up Cc1cc(O)cc(C)c1C[C@H](N)C(=O)N[C@@H]1CCN(C)c2ccc(Cc3ccccc3)cc21 [Compound 1004] and its Emax for rat δ (C6-DOR) opioid receptor (Rattus norvegicus) was 4.3%

Measured on rat δ (C6-DOR) opioid receptor (Rattus norvegicus), CCCCCc1ccc2c(c1)[C@H](NC(=O)[C@@H](N)Cc1c(C)cc(O)cc1C)CCN2 [Compound 1013] has a documented Emax of 0%

The compound Cc1cc(O)cc(C)c1C[C@H](N)C(=O)N[C@@H]1CC[C@@H](C)c2ccc(Cc3ccccc3)cc21 [Compound 1121] , tested on rat δ (C6-DOR) opioid receptor (Rattus norvegicus), showed Emax of 14.3%

Entry Cc1cc(O)cc(C)c1C[C@H](N)C(=O)NC1CCc2ccc(Cc3ccccc3)cc21 (stereo partly shown) [Compound 1114] , tested on rat δ (C6-DOR) opioid receptor (Rattus norvegicus), has a reported Emax of 3.07%

Value (Emax, rat δ (C6-DOR) opioid receptor (Rattus norvegicus)) for record Cc1cc(O)cc(C)c1C[C@H](N)C(=O)N[C@@H]1CCNc2c1cc(Cc1ccccc1)cc2C(F)(F)F [Compound 1129] = 42%

# Emax measured on rat δ (C6-DOR) opioid receptor (Rattus norvegicus) for item Cc1cc(O)cc(C)c1C[C@H](N)C(=O)N[C@@H]1CCNc2cc(O)c(Cc3ccccc3)cc21 [Compound 1046] = 20.3%

rat δ (C6-DOR) opioid receptor (Rattus norvegicus) Emax of Cc1cc(O)cc(C)c1C[C@H](N)C(=O)N[C@@H]1CCCc2ccc(-c3ccc4ccccc4c3)cc21 [Compound 1116] is 1.75%

Item Cc1cc(O)cc(C)c1C[C@H](N)C(=O)N(C1CC1)C1CCNc2ccc(Cc3ccccc3)cc21 (stereo partly shown) [Compound 1016] was tested on rat δ (C6-DOR) opioid receptor (Rattus norvegicus); the reported Emax is 0.82%

Result for CC(=O)N1CC[C@@H](NC(=O)[C@@H](N)Cc2c(C)cc(O)cc2C)c2cc(Cc3ccccc3)cc(Cc3ccccc3)c21 [Compound 1042] , tested on rat δ (C6-DOR) opioid receptor (Rattus norvegicus), Emax: 30.1%

# lookup: Cc1cc(O)cc(C)c1C[C@H](N)C(=O)N[C@@H]1CCNc2ccc(C(c3ccccc3)c3ccccc3)cc21 [Compound 1022] on rat δ (C6-DOR) opioid receptor (Rattus norvegicus), Emax = 0%

Readout Emax for CCCCCCc1ccc2c(c1)[C@@H](NC(=O)[C@@H](N)Cc1c(C)cc(O)cc1C)CCN2 [Compound 1012] , test system rat δ (C6-DOR) opioid receptor (Rattus norvegicus), was 22%

Tested on rat δ (C6-DOR) opioid receptor (Rattus norvegicus), the item N[C@@H](Cc1ccc(Cl)cc1Cl)C(=O)N[C@@H]1CCNc2ccc(Cc3ccccc3)cc21 [Compound 1028] showed Emax equal to 0%

* * *

Could you please report measured log10 EC50 for the items listed next?
Tested system: UniProt:P41145
Protocol text: Stimulation of [35S]GTPγS binding, KOR
Settings: [35S]GTPγS binding, CHO-KOR membranes; mean ± standard error
Reminder: these figures are log10 of reported EC50, in nM before transformation.

Kindly note the recorded log10 EC50 for CC(=O)N1CC[C@@H](NC(=O)[C@@H](N)Cc2c(C)cc(O)cc2C)c2cc(-c3ccccc3)ccc21 , which is 2.46

// log10 EC50 lookup, molecule = Cc1cc(O)cc(C)c1C[C@H](N)C(=O)N[C@@H]1CCS(=O)(=O)c2ccc(Cc3ccccc3)cc21 , result: 2.86

// field: log10 EC50; key: Cc1cc(O)cc(C)c1C[C@H](N)C(=O)N[C@@H]1CCNc2ccc(-c3ccccc3)cc21 ; value = 2.97

Reported log10 EC50 of Cc1cc(O)cc(C)c1C[C@H](N)C(=O)N[C@@H]1CCCc2ccc(-c3ccccc3)cc21 : 2.51

The recorded log10 EC50 for Cc1cc(O)cc(C)c1C[C@H](N)C(=O)N[C@@H]1CCNc2c(CN3CCNCC3)cc(Cc3ccccc3)cc21 is 2.28

Note to self: log10 EC50 recorded for Cc1cc(O)cc(C)c1C[C@H](N)C(=O)N[C@@H]1CCC(C)(C)c2ccc(Cc3ccccc3)cc21 was 3.32

Item: Cc1cc(O)cc(C)c1C[C@H](N)C(=O)N[C@@H]1CCCc2ccc(-c3cccc4ccccc34)cc21 | log10 EC50: 2.30

* * *

Tested system: human κ (CHO-KOR) opioid receptor (Homo sapiens, UniProt P41145)
Construct: expressed in transfected cells
Sequence (P41145 whole entry): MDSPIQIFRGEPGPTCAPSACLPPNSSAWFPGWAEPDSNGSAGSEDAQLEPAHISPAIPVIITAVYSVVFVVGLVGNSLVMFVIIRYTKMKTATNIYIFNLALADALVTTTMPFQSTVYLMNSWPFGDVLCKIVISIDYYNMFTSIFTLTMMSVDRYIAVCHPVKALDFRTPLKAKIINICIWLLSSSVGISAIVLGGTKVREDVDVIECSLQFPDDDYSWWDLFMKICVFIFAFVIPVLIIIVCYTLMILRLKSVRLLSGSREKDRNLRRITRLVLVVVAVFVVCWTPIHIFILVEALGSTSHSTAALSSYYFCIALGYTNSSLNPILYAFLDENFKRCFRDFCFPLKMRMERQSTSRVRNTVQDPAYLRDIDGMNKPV
Protocol text: Radioligand binding assay, [3H]diprenorphine displacement, KOR
Settings: displacement of 0.2 nM [3H]diprenorphine, CHO-KOR membranes; mean ± standard error
Criterion: Ki strictly under 0.04 µM. Met: true (1). Not met: false (0).

q: Given the entry CC(=O)N1CC[C@@H](NC(=O)[C@@H](N)Cc2c(C)cc(O)cc2C)c2cc(Cc3ccccc3)cc(Br)c21 [Compound 1108] , would its reported Ki be below 0.04 µM?
a: true (1)

q: State whether 0.04 µM exceeds Ki recorded for CC(=O)N1CC[C@@H](NC(=O)[C@@H](N)Cc2c(C)cc(O)cc2C)c2cc(CC3Cc4ccccc4C3C)ccc21 (stereo partly drawn) [Compound 1125] .
a: true (1)

q: Hi there! Is Ki for Cc1cc(O)cc(C)c1C[C@H](N)C(=O)N(C)[C@@H]1CCNc2ccc(Cc3ccccc3)cc21 [Compound 1001] below 0.04 µM, do you know?
a: false (0)

q: Ki under 0.04 µM? Item: Cc1cc(O)cc(C)c1C[C@H](N)C(=O)N[C@@H]1CCNc2c(C(=O)O)cc(Cc3ccccc3)cc21 [Compound 1130]
a: false (0)

q: Please indicate whether the reported Ki of Cc1cc(O)cc(C)c1C[C@H](N)C(=O)N[C@@H]1CCNc2ccc(CN3CCc4cccc(C(F)(F)F)c4C3)cc21 [Compound 1061] is strictly below 0.04 µM.
a: false (0)

q: Please state whether Ki is below 0.04 µM for Cc1cc(O)cc(C)c1C[C@H](N)C(=O)N[C@H]1CCNc2ccc(Cc3ccc(F)cc3)cc21 [Compound 1010]
a: false (0)

q: Hello, I'm reviewing records and need to know if Ki of Cc1cc(O)cc(C)c1C[C@H](N)C(=O)N[C@@H]1CCNc2ccc(C(c3ccccc3)c3ccccc3)cc21 [Compound 1022] is below 0.04 µM. Could you check?
a: true (1)

q: is_below(Ki, 0.04 µM) for CCCCCc1ccc2c(c1)[C@H](NC(=O)[C@@H](N)Cc1c(C)cc(O)cc1C)CCN2 [Compound 1013] ?
a: true (1)

q: Regarding Cc1cc(O)cc(C)c1C[C@H](N)C(=O)N[C@@H]1CCS(=O)(=O)c2ccc(Cc3ccccc3)cc21 [Compound 1124] , kindly confirm whether its Ki is beneath 0.04 µM.
a: true (1)

q: Threshold test, Ki < 0.04 µM: Cc1cc(O)cc(C)c1C[C@H](N)C(=O)N[C@@H]1CCNc2ccc(CN3CCCC4(CCCCC4)CC3)cc21 [Compound 1106]
a: true (1)

q: Is the reported Ki for Cc1cc(O)cc(C)c1C[C@H](N)C(=O)N[C@H]1CCNc2ccc(Oc3ccccc3)cc21 [Compound 1018] strictly below 0.04 µM?
a: false (0)

q: For this molecule, is Ki lower than 0.04 µM? Cc1cc(C(N)=O)cc(C)c1C[C@H](N)C(=O)N[C@@H]1CCNc2ccc(Cc3ccccc3)cc21 [Compound 1048]
a: false (0)

q: A record lists CCCc1cc(Br)cc2c1NCC[C@H]2NC(=O)[C@@H](N)Cc1c(C)cc(O)cc1C [Compound 1058] . Is its Ki below 0.04 µM?
a: false (0)

q: Does the reported Ki of Cc1cc(O)cc(C)c1C[C@H](N)C(=O)N[C@@H]1CCNc2ccc(CC3Cc4ccc(O)cc4C3)cc21 (stereo partly drawn) [Compound 1038] stay below 0.04 µM?
a: true (1)

q: # strict comparison: is reported Ki < 0.04 µM? input = Cc1cc(O)cc(C)c1C[C@H](N)C(=O)N[C@@H]1CCCc2ccc(Oc3ccccc3)cc21 [Compound 1118]
a: true (1)

q: Identify whether the molecule CCCCCCc1ccc2c(c1)[C@@H](NC(=O)[C@@H](N)Cc1c(C)cc(O)cc1C)CCN2 [Compound 1012] records Ki below 0.04 µM.
a: false (0)

q: Ki under 0.04 µM? Item: Cc1cc(O)cc(C)c1C[C@H](N)C(=O)N[C@@H]1CCNc2cc(Cc3ccccc3)ccc21 [Compound 1023]
a: false (0)

q: Lab note: Ki threshold 0.04 µM. Does this molecule come in strictly under it? Cc1cc(O)cc(C)c1C[C@H](N)C(=O)N[C@@H]1CCNc2c(C)cc(Cc3ccccc3)cc21 [Compound 1100]
a: true (1)

q: I wonder whether Cc1cc(O)cc(C)c1C[C@H](N)C(=O)N[C@@H]1CCCc2ccccc21 [Compound 1113] has Ki below 0.04 µM. Can you tell?
a: false (0)

q: Find out if reported Ki for Cc1cc(O)cc(C)c1C[C@H](N)C(=O)N[C@@H]1CCNc2c(CCc3ccccc3)cc(Cc3ccccc3)cc21 [Compound 1098] is less than 0.04 µM
a: true (1)

q: Is Ki strictly under 0.04 µM for the entry COc1cc(Cc2ccccc2)cc2c1N(C(C)=O)CC[C@H]2NC(=O)[C@@H](N)Cc1c(C)cc(O)cc1C [Compound 1076] ?
a: false (0)

q: Please indicate whether the reported Ki of Cc1cc(O)cc(C)c1C[C@H](N)C(=O)N[C@@H]1CCNc2ccc(CC3Cc4ccccc4C3C)cc21 (stereo partly drawn) [Compound 1043] is strictly below 0.04 µM.
a: true (1)

q: Given CC(=O)N1CC[C@@H](NC(=O)[C@@H](N)Cc2c(C)cc(O)cc2C)c2cc(CN3CCc4cccc(C(F)(F)F)c4C3)ccc21 [Compound 1066] , is recorded Ki strictly lower than 0.04 µM?
a: false (0)

q: Lab log: compare recorded Ki with 0.04 µM; is it strictly lower for Cc1cc(O)cc(C)c1C[C@H](N)C(=O)N[C@H]1CCN(C)c2ccc(Cc3ccccc3)cc21 [Compound 1005] ?
a: false (0)
